# measurement_notes: IUF_NPC1b_proliferation_BrdU_72hr: Leibniz Research Institute for Environmental Medicine (IUF) 72-hour Neural Progenitor Cell Bromodeoxyuridine (BrdU) Proliferation Assay (NPC1b) (AID 2284207)
Active and inactive are the calls of the source. How the source made its calls: active means hit-call score of the fitted dose curve at least 0.9, where 1 is the maximum; inactive means score below 0.9.
Response enum: 1 (yes) (active), 0 (no) (inactive)

// known answers, use as guide
Tell me the assay call for CSC(=O)c1cccc2nnsc12 please. 1 (yes)

Tell me the assay call for Cc1nn(C)c(Oc2ccccc2)c1C=NOCc1ccc(C(=O)OC(C)(C)C)cc1 please. 1 (yes)

Tell me the assay call for CC(C)(c1ccc(O)cc1)c1ccc(O)cc1 please. 1 (yes)

Moving on to another compound below.
Tell me the assay call for CCCN(CCC)C(=O)SCC please. 0 (no)

====

# Read-out: Monokine induced gamma interferon (MIG), CXCL9 (gene 4283)
# measurement_notes: BSK_SAg_MIG: BioMAP Diversity Plus: SAg Assay for Monokine induced gamma interferon (MIG) Biomarker Activity (AID 2283092)
# experimental_context: primary human HUVEC with PBMC; actives raise or lower the signal
The source made the active and inactive calls. The calls were made as follows: active = hit-call score of the fitted dose curve at least 0.9, where 1 is the maximum; inactive = score below 0.9.
Response enum: active, inactive

Tell me the assay call for c1ccc(Nc2ccccc2)cc1 please. inactive

Tell me the assay call for N[C@@H](Cc1cc(I)c(Oc2ccc(O)c(I)c2)c(I)c1)C(=O)O please. inactive

Tell me the assay call for COc1nc(C)nc(NC(=O)NS(=O)(=O)c2ccccc2OCCCl)n1 please. inactive

Tell me the assay call for COC(=O)c1cccc(C)c1S(=O)(=O)NC(=O)Nc1nc(OCC(F)(F)F)nc(N(C)C)n1 please. inactive

Tell me the assay call for CCCCC(CC)COC(=O)c1ccccc1C(=O)O (stereo not drawn) please. inactive

More entries:
Tell me the assay call for CCCCOC(=O)[C@@H](C)Oc1ccc(Oc2ccc(C(F)(F)F)cn2)cc1 please. inactive

Tell me the assay call for C[C@]12C[C@H](O)[C@H]3[C@@H](CCC4=CC(=O)CC[C@@]43C)[C@@H]1CC[C@@H]2C(=O)CO please. inactive

Tell me the assay call for O=C(c1ccccc1)C1CCCCC1 please. inactive

====

# Read-out: Human Leukocyte Antigen - DR isotype (HLADR), HLA-DRA (gene 3122)
# measurement_notes: BSK_3C_HLADR: BioMAP Diversity Plus: 3C Assay for Human Leukocyte Antigen - DR isotype (HLADR) Biomarker Activity (AID 2283019)
# experimental_context: primary human endothelial cells (HUVEC); actives raise or lower the signal
Active and inactive are the calls of the source. How the source made its calls: active means hit-call score of the fitted dose curve at least 0.9, where 1 is the maximum; inactive means score below 0.9.
Response enum: True for active, False for inactive

// known answers, use as guide
Tell me the assay call for COC(=O)c1c(Cl)nn(C)c1S(=O)(=O)NC(=O)Nc1nc(OC)cc(OC)n1 please. False

Tell me the assay call for N[C@@H](Cc1cc(I)c(Oc2ccc(O)c(I)c2)c(I)c1)C(=O)O please. False

More entries:
Tell me the assay call for O=C(Nc1ccc([N+](=O)[O-])cc1Cl)c1cc(Cl)ccc1O please. True

Tell me the assay call for c1ccc2[nH]c(-c3cscn3)nc2c1 please. False

====

# measurement_notes: ATG_BRE_CIS: Attagene CIS-FACTORIAL HepG2 Assay for human Bone Morphogenetic Protein (BMP) Response Element (BRE) (AID 2282933)
# experimental_context: HepG2 BMP response element reporter, Attagene transcription factor profiling; actives raise or lower the signal
Active and inactive are the calls of the source. The calls were made as follows: active = hit-call score of the fitted dose curve at least 0.9, where 1 is the maximum; inactive = score below 0.9.
endpoint_name: outcome

Indicate the recorded outcome value for this compound: CCCCC(CC)COC(=O)c1ccccc1C(=O)O (stereo not drawn) inactive

Indicate the recorded outcome value for this compound: COC(=O)c1ccccc1C(=O)O inactive

Indicate the recorded outcome value for this compound: CCCOC(=O)c1ccc(C(=O)OCCC)nc1 inactive

====

# assay_system: human Peripheral-type Benzodiazepine Receptor (PBR), TSPO (gene 706)
# measurement_notes: NVS_MP_hPBR: NovaScreen (NVS) Membrane Protein Assay for human Peripheral-type Benzodiazepine Receptor (PBR) (AID 2283331);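 further: hits reduce radioligand binding relative to DMSO baseline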
Results filed as inconclusive are left out. Activity calls are given as the source filed them. The calls were made as follows: active = hit-call score of the fitted dose curve at least 0.9, where 1 is the maximum; inconclusive = response in the unintended direction; inactive = score below 0.9.
Response enum: True for active, False for inactive

// known answers, use as guide
Tell me the assay call for COC(=O)c1ccccc1C(=O)O please. False

Tell me the assay call for CCCCOCCOCCOCc1cc2c(cc1CCC)OCO2 please. True

Tell me the assay call for S=C([S-])NCCNC(=S)[S-].[Mn+2] please. False

Tell me the assay call for CCOC(=O)NCCOc1ccc(Oc2ccccc2)cc1 please. False

Tell me the assay call for C=CCOC(Cn1ccnc1)c1ccc(Cl)cc1Cl (configuration not stated) please. True

More entries:
Tell me the assay call for CN(C)C(=O)Nc1ccc(Cl)c(Cl)c1 please. True

Tell me the assay call for CCCCC(CC)COC(=O)c1ccccc1C(=O)O (configuration not stated) please. True

Tell me the assay call for CCCCOC(=O)[C@@H](C)Oc1ccc(Oc2ccc(C(F)(F)F)cn2)cc1 please. False

Tell me the assay call for CCCCC(CC)CN1C(=O)C2C3C=CC(C3)C2C1=O (configuration not stated) please. False

Tell me the assay call for CCCCCCC(C)OC(=O)COc1nc(F)c(Cl)c(N)c1Cl (configuration not stated) please. False

Tell me the assay call for COc1nc(C)nc(NC(=O)NS(=O)(=O)c2ccccc2OCCCl)n1 please. False

Tell me the assay call for CC1(C)C(C=C(Cl)Cl)C1C(=O)OCc1cccc(Oc2ccccc2)c1 (configuration not stated) please. True

====

# measurement_notes: CCTE_Shafer_MEA_acute_network_burst_percentage: CCTE's Neural Acute Assay for Percentage of Network Bursts, Shafer Lab (AID 2284022);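 further: curves fitted for loss so actives lower network burst percentage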
Calls of active or inactive are those of the source. The calls were made as follows: active = hit-call score of the fitted dose curve at least 0.9, where 1 is the maximum; inactive = score below 0.9.
Response enum: 1 (yes) (active), 0 (no) (inactive)

// known answers, use as guide
Tell me the assay call for CC(C)(C)[C@@H](O)[C@@H](Cc1ccc(Cl)cc1)n1cncn1 please. 0 (no)

Tell me the assay call for C=CCOC(Cn1ccnc1)c1ccc(Cl)cc1Cl (configuration not stated) please. 0 (no)

Tell me the assay call for CCCCC(CC)CN1C(=O)C2C3C=CC(C3)C2C1=O (configuration not stated) please. 0 (no)

Tell me the assay call for Oc1ccc(C(c2ccc(O)cc2)C(Cl)(Cl)Cl)cc1 please. 1 (yes)

More entries:
Tell me the assay call for N#CSCSc1nc2ccccc2s1 please. 1 (yes)

Tell me the assay call for CC1(C)C(C=C(Cl)Cl)C1C(=O)OCc1cccc(Oc2ccccc2)c1 (configuration not stated) please. 1 (yes)

Tell me the assay call for O=C(c1ccccc1)C1CCCCC1 please. 0 (no)

Tell me the assay call for CC(C)CCCCCCc1ccc(O)cc1 please. 0 (no)

Tell me the assay call for CSC(=O)c1cccc2nnsc12 please. 0 (no)

Tell me the assay call for O=C(O)c1ccccc1 please. 0 (no)

Tell me the assay call for Cc1nn(C)c(Oc2ccccc2)c1C=NOCc1ccc(C(=O)OC(C)(C)C)cc1 please. 1 (yes)

Tell me the assay call for COC(=O)c1ccccc1C(=O)O please. 0 (no)

====

# measurement_notes: APR_HepG2_MicrotubuleCSK_72hr: Apredica 72-hour HepG2 Assay for Microtubule CSK Stabilty (AID 2282919)
# experimental_context: HepG2 microtubule cytoskeleton, high-content imaging, actives raise or lower the signal
Activity calls are given as the source filed them. The calls were made as follows: active = hit-call score of the fitted dose curve at least 0.9, where 1 is the maximum; inactive = score below 0.9.
Response enum: 1 (yes) = active, 0 (no) = inactive

// known answers, use as guide
Tell me the assay call for CCOC(=O)[C@H](C)Oc1ccc(Oc2nc3ccc(Cl)cc3o2)cc1 please. 0 (no)

Tell me the assay call for CCCCOC(=O)C(C)Oc1ccc(Oc2ccc(C(F)(F)F)cn2)cc1 (stereo unspecified) please. 0 (no)

More entries:
Tell me the assay call for N[C@@H](Cc1cc(I)c(Oc2ccc(O)c(I)c2)c(I)c1)C(=O)O please. 0 (no)

Tell me the assay call for CC1(C)C(C=C(Cl)Cl)C1C(=O)OCc1cccc(Oc2ccccc2)c1 (stereo unspecified) please. 1 (yes)

Tell me the assay call for CCN(CC)C(=O)c1cccc(C)c1 please. 0 (no)

Tell me the assay call for CCCN(CCC)C(=O)SCC please. 0 (no)

====

# measurement_notes: BSK_LPS_SRB: Viability Assessment in the BioMAP Diversity Plus: LPS Assay (AID 2283079);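 further: total protein by sulforhodamine B absorbance as a cytotoxicity measure; measured one day after compound addition; fitted in both directions against DMSO so loss or gain of signal counts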
# experimental_context: primary human HUVEC with PBMC
Activity calls are given as the source filed them. The calls were made as follows: active = hit-call score of the fitted dose curve at least 0.9, where 1 is the maximum; inactive = score below 0.9.
Response enum: active, inactive

// known answers, use as guide
Tell me the assay call for N[C@@H](Cc1cc(I)c(Oc2ccc(O)c(I)c2)c(I)c1)C(=O)O please. inactive

Tell me the assay call for COC(=O)c1cccc(C)c1S(=O)(=O)NC(=O)Nc1nc(OCC(F)(F)F)nc(N(C)C)n1 please. inactive

Tell me the assay call for O=C(O)c1ccccc1 please. inactive

Tell me the assay call for CCCCC(CC)CN1C(=O)C2C3C=CC(C3)C2C1=O (stereo not given) please. active

Moving on to another molecule below.
Tell me the assay call for C[C@]12C[C@H](O)[C@H]3[C@@H](CCC4=CC(=O)CC[C@@]43C)[C@@H]1CC[C@@H]2C(=O)CO please. inactive
